Biological target: recombinant F-protein (respiratory syncytial virus (RSV)) (UniProt P03420)
Sequence (P03420 whole entry): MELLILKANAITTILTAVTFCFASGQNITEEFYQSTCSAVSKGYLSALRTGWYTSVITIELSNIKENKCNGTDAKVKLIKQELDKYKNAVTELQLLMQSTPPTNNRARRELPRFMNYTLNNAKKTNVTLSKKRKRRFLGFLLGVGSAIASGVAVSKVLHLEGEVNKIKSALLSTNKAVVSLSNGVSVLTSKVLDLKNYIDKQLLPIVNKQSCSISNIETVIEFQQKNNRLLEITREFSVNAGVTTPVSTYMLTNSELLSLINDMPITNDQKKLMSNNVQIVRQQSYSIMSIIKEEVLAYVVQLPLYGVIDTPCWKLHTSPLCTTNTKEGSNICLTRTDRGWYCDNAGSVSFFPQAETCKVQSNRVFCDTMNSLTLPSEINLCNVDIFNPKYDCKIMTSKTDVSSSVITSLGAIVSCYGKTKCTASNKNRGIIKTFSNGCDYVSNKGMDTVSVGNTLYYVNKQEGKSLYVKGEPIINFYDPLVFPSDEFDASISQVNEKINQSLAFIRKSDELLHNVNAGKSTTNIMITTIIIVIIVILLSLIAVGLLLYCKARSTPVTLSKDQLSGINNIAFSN
Assay: SPR Biacore T-200, antibody captured on protein A chip, F-protein as analyte
readout label: pKd
pKd is defined as minus the log10 of a concentration measured in mol/L.

Record excerpt, results attached:
[[record]]
binder = "12B11 (antibody, V domains shown) VH: EVQLVESGGGVVQPGRSLRLACAASGFTFNSYAMHWVRQAPGKGLEWVSSITGGSSYVDYSASVKGRFTISRDNAQSSLYLQMNSLRAEDTAVYYCARDMYGLGSYYSPNYFDPWGQGTLVTVSS VL: SYELTQPPSVSGAPGQRVTISCTGSSSNIGAGYDVHWYQQLPGRAPKLLIFANTNRPSGVPDRFSGSKSGTSASLAITGLQAEDEADYYCQSYDSSLSYVFGTGTKVTVLG"
observed_measurement = 10.94

[[record]]
binder = "12A1 (antibody, V domains shown) VH: EVQLVESGGGLIQPGGSLRLSCAGSGFTFSSYTMHWVRQAPGKGLEWVSSITGGSSYVDYSASVKGRFTISRDNAQSSLYLQMNSLRAEDTAVYYCARDDYGSGSYSNWFDPWGQGTLVTVSS VL: QSVLTQPPSVSGAPGQRVTISCTGSSSDIGAGYDVHWYQQLPGTAPKLLIFANTNRPSGVPDRFSGSKSGASASLAITGLQADDEADYYCQSYDRSLSHVFGTGTKVTVLG"
observed_measurement = 10.94


Let us move to another entry and its pKd.
In plain terms, 10E7 (antibody, V domains shown) VH: EVQLVESGGGLVKPGGSLRLSCAASGFTFTSYRMHWVRQAPGKGLEWVSSITGGGNYIEYADSVKGRFTISRDNAKNSLDLQMNSLRAEDTAIYYCARDMYGLGSYYSPNYFDSWGQGTLVTVSS VL: QSVLTQPPSVSGAPGQRVTISCTGSSSNIGAGYDVHWYQQLPGRAPKLLIFANTNRPSGVPDRFSGSKSGASASLAITGLQADDEADYYCQSYDRSLSHVFGTGTKVTVLG has a documented pKd of 10.86
